System: 5-HT pressor responses
Assay: Antagonism to 5-HT pressor responses in pithed rats
Assay type: in vivo
Conditions: Rattus norvegicus, iv, pithed rats, 0.02 mg/kg, jugular vein; read-out: Effects on pressor response of 5-HT, % eff. of 0.02 mg/kg
Reported change in vivo at 0.02 mg/kg values for the following compounds.
OUTCOME_MEASURE: change in vivo at 0.02 mg/kg (%)

| COMPOUND | OUTCOME_MEASURE | DATA_VALUE |
| --- | --- | --- |
| O=C1OCCN1CCN1CCN([C@@H]2C[C@@H](c3ccc(F)cc3)c3ccc(Cl)cc32)CC1 (relative stereo) | change in vivo at 0.02 mg/kg | -77 |
| CC(C)c1ccc2c(c1)[C@H](N1CCN(CCN3CCNC3=O)CC1)C[C@H]2c1ccc(F)cc1 (relative stereo) | change in vivo at 0.02 mg/kg | -6 |
| Fc1ccc([C@@H]2C[C@@H](N3CCN(CCN4CCNC4=S)CC3)c3cc(Cl)ccc32)cc1 (relative stereo) | change in vivo at 0.02 mg/kg | -93 |
| Fc1ccc([C@@H]2C[C@@H](N3CCN(CCN4CCCC4=S)CC3)c3cc(Cl)ccc32)cc1 (relative stereo) | change in vivo at 0.02 mg/kg | -88 |
| O=C1OCCN1CCCN1CCN([C@@H]2C[C@@H](c3ccc(F)cc3)c3ccc(F)cc32)CC1 (relative stereo) | change in vivo at 0.02 mg/kg | -31 |
| O=C1CCCN1CCN1CCN([C@@H]2C[C@@H](c3ccc(F)cc3)c3ccc(Cl)cc32)CC1 (relative stereo) | change in vivo at 0.02 mg/kg | -83 |
| O=C1OCCN1CCN1CCN([C@@H]2C[C@@H](c3ccc(F)cc3)c3ccccc32)CC1 (relative stereo) | change in vivo at 0.02 mg/kg | -4 |
| O=C1OCCN1CCN1CCN([C@@H]2C[C@@H](c3ccc(F)cc3)c3ccc(F)cc32)CC1 (relative stereo) | change in vivo at 0.02 mg/kg | -40 |

###

Reported ED50 values for the following compounds.
Tested on: methylphenidate induced stereotypies
Test: Methylphenidate Antagonism
Format: in vivo, mice
Settings: Mus musculus, ip, read-out: MePh antg. ED50, i.p., mice, 2 hours before methylphenidate 60 mg/kg s.c.

| COMPOUND | TARGET | COMPARISON_SIGN | ED50, µmol/kg |
| --- | --- | --- | --- |
| O=C1NCCCN1CCN1CCN([C@@H]2C[C@@H](c3ccc(F)cc3)c3ccc(F)cc32)CC1 (relative stereo) | methylphenidate induced stereotypies | > | 59 |
| O=C1CCCN1CCN1CCN([C@@H]2C[C@@H](c3ccc(F)cc3)c3ccc(F)cc32)CC1 (relative stereo) | methylphenidate induced stereotypies | = | 18 |
| Cc1ccc2c(c1)[C@H](N1CCN(CCN3CCNC3=O)CC1)C[C@H]2c1ccc(F)cc1 (relative stereo) | methylphenidate induced stereotypies | = | 27 |
| CN1CCN(CCN2CCN([C@@H]3C[C@@H](c4ccc(F)cc4)c4ccc(F)cc43)CC2)C1=O (relative stereo) [compound 3] | methylphenidate induced stereotypies | > | 78 |
| CC(C)N1CCN(CCN2CCN([C@@H]3C[C@@H](c4ccc(F)cc4)c4ccc(F)cc43)CC2)C1=O (relative stereo) | methylphenidate induced stereotypies | > | 73 |
| O=C1NCCN1CCCN1CCN([C@@H]2C[C@@H](c3ccc(F)cc3)c3ccc(F)cc32)CC1 (relative stereo) | methylphenidate induced stereotypies | = | 56 |
| CN1CCC(CCN2CCN([C@H]3C[C@H](c4ccc(F)cc4)c4ccccc43)CC2)C1=O (relative stereo) | methylphenidate induced stereotypies | > | 61 |
| O=C1NCCN1CCN1CCN([C@@H]2C[C@@H](c3ccc(F)cc3)c3ccc(C(F)(F)F)cc32)CC1 (relative stereo) | methylphenidate induced stereotypies | = | 1.8 |
| O=C1NCCN1CCN1CCN([C@@H]2C[C@@H](c3ccc(F)cc3)c3ccccc32)CC1 (single isomer, unassigned) [+1] | methylphenidate induced stereotypies | > | 97 |
| CN1CCN(CCN2CCN([C@@H]3C[C@@H](c4ccc(F)cc4)c4ccc(F)cc43)CC2)C1=O (single isomer, unassigned) [+3] | methylphenidate induced stereotypies | > | 91 |
| O=c1[nH]c2ccccc2n1CCN1CCN([C@@H]2C[C@@H](c3ccc(F)cc3)c3ccc(F)cc32)CC1 (relative stereo) | methylphenidate induced stereotypies | > | 72 |
| O=C1CCCN1CCN1CCN([C@@H]2C[C@@H](c3ccc(F)cc3)c3ccc(Cl)cc32)CC1 (relative stereo) | methylphenidate induced stereotypies | = | 11 |
| O=C1NCCN1CCN1CCN([C@@H]2C[C@@H](c3ccc(F)cc3)c3ccc(Cl)cc32)CC1 (single isomer, unassigned) | methylphenidate induced stereotypies | = | 49 |
